- procedure details: Solubility to fluorine-based solvent
- condition description: Novec 7200, 1% by mass, 25° C.
property name: Solubility to fluorine-based solvent
Write the number on its own, no unit after it.

These recorded examples may help you get a feel for the data.
NCCOCC(F)(F)OC(F)(F)C(F)(F)OC(F)(F)C(F)(F)OC(F)(F)C(F)(F)C(F)(F)C(F)(F)F.O=S(=O)(NS(=O)(=O)C(F)(F)C(F)(F)C(F)(F)C(F)(F)F)C(F)(F)C(F)(F)C(F)(F)C(F)(F)F : 1
NCCC(F)(F)C(F)(F)C(F)(F)C(F)(F)C(F)(F)C(F)(F)C(F)(F)C(F)(F)F.O=C(O)C(F)(F)OC(F)(F)C(F)(F)OC(F)(F)C(F)(F)OC(F)(F)C(F)(F)C(F)(F)C(F)(F)F : 1
NCCC(F)(F)C(F)(F)C(F)(F)C(F)(F)C(F)(F)C(F)(F)C(F)(F)C(F)(F)F.O=S(=O)(O)C(F)(F)C(F)(F)C(F)(F)C(F)(F)F [compound 2, reference compound] : 2
NCCOCC(F)(F)OC(F)(F)C(F)(F)OC(F)(F)C(F)(F)OC(F)(F)C(F)(F)C(F)(F)C(F)(F)F.O=S(=O)(O)CCCOCC(F)(F)OC(F)(F)C(F)(F)OC(F)(F)C(F)(F)OC(F)(F)C(F)(F)C(F)(F)C(F)(F)F [Ex. 1, PFTEG amine-PFTEG sulfonic acid salt] : 1

Read the next record carefully.
// query Note Solubility to fluorine-based solvent for the compound shown: `NCCOCC(F)(F)OC(F)(F)C(F)(F)OC(F)(F)C(F)(F)OC(F)(F)C(F)(F)C(F)(F)C(F)(F)F.O=S(=O)(O)C(F)(F)C(F)(F)C(F)(F)C(F)(F)F`
// result 1
